- Assay comment: Cytotoxicity against human WBC assessed as cell viability at 100 uM after 24 hrs by MTT assay
- Recorded conditions: white blood cells (WBC), read-out: Activity
Binary label based on viability at 24 h, 100 µM with cut-off 90%: below gives met, not below gives not met.

Example entries and their recorded answers appear below.
Molecule | Label class
CC[C@@]1(O)C(=O)OCc2c1cc1n(c2=O)Cc2cc3ccccc3nc2-1 [CAMPTOTHECIN] | met
COc1ccc(-c2nc3ccc(C)cn3c2Nc2c(C)cccc2C)cc1OC | met
NC(=O)c1ccc2nc(-c3ccc(OCc4ccccc4)cc3OCc3ccccc3)c(NC3CCCCC3)n2c1 | not met

Prompt line: Answer whether the molecule `COc1ccc(-c2nc3ccc(Br)cn3c2Nc2c(C)cccc2C)cc1OC` has viability at 24 h, 100 µM strictly less than 90%
Response line: met

Prompt line: What do you have for `COc1ccc(-c2nc3ccc(-c4ccccc4)cn3c2Nc2c(C)cccc2C)cc1OC` ?
Response line: met

Prompt line: What do you have for `COc1ccc(-c2nc3ccc(C)cn3c2Nc2c(C)cccc2C)c(OC)c1` ?
Response line: not met

Prompt line: What do you have for `COc1ccc(-c2nc3ccc(Br)cn3c2Nc2c(C)cccc2C)c(OC)c1` ?
Response line: not met
